All figures here come from paper PMC7464552.

system: HCT116 cells; assay: Cell activity (anti-proliferation) assay, WST-8, 72 h; format: cell-based, human; details: Homo sapiens, HCT-116, read-out: 50% effective concentration (EC50), anti-proliferation; HCT116, continuous exposure for 72 h, WST-8
pEC50: −log10 of the molar value.
measurement-type: pEC50

[1] O=C(NCCCCC1CCN(C(=O)c2ccccc2)CC1)c1cc2cnccc2[nH]1 [Compound 3a]
[2] O=C(NCCCCN1CCN(C(=O)c2ccccc2)CC1)c1cc2cnccc2[nH]1 [Compound 3b]
Select one: 1 or 2 . Criterion: greater recorded pEC50. Answer by quoting the chosen item's label. 1
(1: 9.32, 2: 7.06)
